Target: Corticotropin-releasing factor receptor 2/Corticotropin-releasing factor-binding protein (Homo sapiens, UniProt P24387+Q13324)
Sequence (Q13324 whole entry): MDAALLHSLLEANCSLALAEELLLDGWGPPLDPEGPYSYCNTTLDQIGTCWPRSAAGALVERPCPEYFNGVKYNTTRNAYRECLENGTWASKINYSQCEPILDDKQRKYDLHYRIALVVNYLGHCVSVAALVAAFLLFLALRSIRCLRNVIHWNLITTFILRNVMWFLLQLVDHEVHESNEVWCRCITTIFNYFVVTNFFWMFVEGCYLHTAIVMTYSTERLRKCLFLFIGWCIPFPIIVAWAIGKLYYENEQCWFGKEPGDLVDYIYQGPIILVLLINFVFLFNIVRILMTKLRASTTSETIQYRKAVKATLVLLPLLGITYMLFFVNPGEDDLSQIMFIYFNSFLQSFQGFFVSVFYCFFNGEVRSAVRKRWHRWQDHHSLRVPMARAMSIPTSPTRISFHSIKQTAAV
Sequence (P24387 whole entry): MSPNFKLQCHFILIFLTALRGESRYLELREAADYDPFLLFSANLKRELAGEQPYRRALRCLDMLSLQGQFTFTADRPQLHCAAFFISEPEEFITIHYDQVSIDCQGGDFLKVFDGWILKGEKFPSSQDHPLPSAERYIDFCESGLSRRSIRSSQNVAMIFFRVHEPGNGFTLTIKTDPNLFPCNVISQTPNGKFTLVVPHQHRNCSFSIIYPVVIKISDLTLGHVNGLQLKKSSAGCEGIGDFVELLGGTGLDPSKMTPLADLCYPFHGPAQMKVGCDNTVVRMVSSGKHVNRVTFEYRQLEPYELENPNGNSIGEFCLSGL
Experiment: Dose Response confirmation of uHTS hits for small molecule antagonists of the CRF-binding protein and CRF-R2 receptor complex.
Assay type: functional
Conditions: read-out: IC50_Mean
The source made the active and inactive calls. Cut-off read from the data, not from the text of the source: actives have a measured IC50 and inactives only a lower limit.
Answer with one of the outcomes given here: TRUE (active), FALSE (inactive)

IN: Assay result, entry O=[N+]([O-])c1ccccc1C=NNC(=S)NN=Cc1ccccc1[N+](=O)[O-] — outcome?
OUT: FALSE

IN: How did this test come out for CC1C(=O)C(C)C(c2cccs2)NC1c1cccs1 (centres undefined) ?
OUT: FALSE

IN: Name the outcome recorded for COc1ccc(/C=C2\CCC(C3CCCC3)C2=O)cc1OC (centres undefined) in the assay.
OUT: FALSE

IN: Could you please tell me the result logged for COc1cccc(C2C(C(=O)c3ccc(C)o3)=C(O)C(=O)N2CCN2CCOCC2)c1OC (centres undefined) in this assay?
OUT: FALSE

IN: Per the assay record, what outcome was assigned to CN(C(=O)Oc1ccc(C(=O)c2ccc(Cl)cc2)cc1)c1ccccc1 ?
OUT: TRUE

IN: Assay outcome for O=C(O)C1OC1(c1ccccc1Cl)c1ccccc1Cl (centres undefined) : what was it?
OUT: TRUE

IN: Recorded test outcome, item COC(=O)c1ccc(/C(O)=C(\C#N)c2nc3ccccc3s2)cc1
OUT: TRUE

IN: Hi, do you know how COc1ccc(C2CC(c3cccs3)=NN2C(=O)c2ccccc2)cc1OC (centres undefined) came out in this test?
OUT: FALSE

IN: Which outcome did this test record for the compound Cc1ccc(S(=O)(=O)N2CCC(c3nc4c(nnn4Cc4ccccc4)c(=O)[nH]3)CC2)cc1 ?
OUT: FALSE
